These measurements were taken from ChEMBL document CHEMBL5725362.

# assay-system: Sphingosine kinase 1 (Homo sapiens, UniProt Q9NYA1)
# Sequence (Q9NYA1 whole entry): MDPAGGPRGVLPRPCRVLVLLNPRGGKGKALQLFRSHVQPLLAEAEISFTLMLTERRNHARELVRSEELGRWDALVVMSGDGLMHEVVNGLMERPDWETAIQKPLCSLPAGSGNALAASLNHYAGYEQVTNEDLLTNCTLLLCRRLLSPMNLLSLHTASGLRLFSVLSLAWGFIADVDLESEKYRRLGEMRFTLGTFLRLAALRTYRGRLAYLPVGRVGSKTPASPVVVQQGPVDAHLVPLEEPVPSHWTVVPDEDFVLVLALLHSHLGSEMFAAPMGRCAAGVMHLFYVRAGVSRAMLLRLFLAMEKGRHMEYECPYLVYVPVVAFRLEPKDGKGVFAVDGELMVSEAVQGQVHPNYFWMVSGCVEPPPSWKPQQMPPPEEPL
# protocol-description: Scintillation Proximity Assay: SphK activity was measured by a scintillation proximity assay as previously described [1], the disclosure of which is incorporated herein. Briefly, recombinant SphK1 or SphK2 were expressed in Sf9 insect cells, crude homogenates were prepared and incubated in 96 well FlashPlates (Perkin-Elmer) in a buffer containing D-erythro-sphingosine and γ-[33P]ATP. The [33P]S1P …
pKi: −log10 of the molar value.
quantity-measured: pKi

Study these solved cases before continuing.
1) CCCCCCCCCCc1ccc(/C=C/C2(C(=N)N)CC2)cc1
< 5.00
2) CCCCCCCCCCCc1cccc(-c2nc(C3(C(=N)N)CC3)n[nH]2)c1
> 6.00
3) N=C(N)N1CCC[C@H]1c1nc(-c2ccc(CS(=O)(=O)c3ccccc3)cc2)no1
< 5.00
4) CCCCCCCCCCCc1ccc(F)c(-c2nnc(C3(C(=N)N)CC3)o2)c1
> 6.00
5) CCCCCCCCCCCc1cc(-c2nnc(C3(C(=N)N)CC3)o2)ccc1F
> 6.00
6) N=C(N)C1(c2nnc(-c3ccc(CCCCCCCOCC4CCCCC4)cc3)o2)CC1
> 6.00

Data request, read-out pKi, for "CCCCCCCCCCCc1ccc(C)c(-c2nnc(C3(C(=N)N)CC3)o2)c1"
> 6.00

Look up pKi for this compound: "N=C(N)C1(c2nnc(-c3cccc(CCCCCCOCC4CCCCC4)c3)o2)CC1"
> 6.00

Value lookup for pKi; key = "CCCCCCCCCCCCc1cccc(-c2noc(C3(C(=N)N)CC3)n2)c1"
> 6.00

Give the measured pKi of "CCCCCCCCCCCc1cc(-c2nnc(C3(C(=N)N)CC3)o2)ccc1C" .
> 6.00

Entry "N=C(N)C1(c2nc(-c3cccc(CCCCCCOCC4CCCCC4)c3)no2)CC1" : reported pKi = ?
> 6.00
